Below: a set of entries, each annotated with reported TW Caco-2 Papp (apparent permeability coefficient from A B).
- Test system: Caco-2 monolayers (Transwell)
- PROTOCOL: In vitro drug absorption study, Transwell Caco-2 monolayer, Papp by LC-MS
- EXPERIMENTAL_CONDITIONS: Caco-2 Transwell, 19-21 days culture, apical pH 6.5 / basolateral pH 7.4 (TB, 10 mM HANKS/HBSS), 10 µM drug in 0.1% DMSO, 2 h, 37°C, static, mean ± SEM, at least three biological replicates
QUANTITY: TW Caco-2 Papp (apparent permeability coefficient from A B)

COMPOUND | EXPERIMENTAL_SYSTEM | OBSERVED_VALUE
CN/C(=N/CCSCc1nc[nH]c1C)NC#N | Caco-2 monolayers (Transwell) | 5.08± 1.39 × 10^-6 cm/sec
CC(C)(C)NCC(O)c1cc(O)cc(O)c1 (stereo not drawn) | Caco-2 monolayers (Transwell) | 1.85± 0.10 × 10-6 cm/sec
CC[C@H]1OC(=O)[C@H](C)[C@@H](O[C@H]2C[C@@](C)(OC)[C@@H](O)[C@H](C)O2)[C@H](C)[C@@H](O[C@@H]2O[C@H](C)C[C@H](N(C)C)[C@H]2O)[C@](C)(O)C[C@@H](C)C(=O)[C@H](C)[C@@H](O)[C@]1(C)O | Caco-2 monolayers (Transwell) | 1.2e-06 cm/s
CC(=O)CC(c1ccccc1)c1c(O)c2ccccc2oc1=O (stereo not drawn) | Caco-2 monolayers (Transwell) | 0.00024341 cm/s
CC(C)NCC(O)COc1cccc2ccccc12 (stereo not drawn) | Caco-2 monolayers (Transwell) | 101.68± 23.00 × 10-6 cm/sec
CN(C)C(=O)C(CCN1CCC(O)(c2ccc(Cl)cc2)CC1)(c1ccccc1)c1ccccc1 [Loperamide] | Caco-2 monolayers (Transwell) | 58.60± 8.62 × 10^-6 cm/sec
COCCc1ccc(OCC(O)CNC(C)C)cc1 (stereo not drawn) | Caco-2 monolayers (Transwell) | 47.63± 5.44 × 10-6 cm/sec
CNC(=C[N+](=O)[O-])NCCSCc1ccc(CN(C)C)o1 [Rantidine] | Caco-2 monolayers (Transwell) | 3.22± 0.93 × 10^-6 cm/sec
NC(=O)N1c2ccccc2C=Cc2ccccc21 [Carbamazepine] | Caco-2 monolayers (Transwell) | 204.43± 9.20 × 10-6 cm/sec
